- Tested on: 786-0 renal
- experiment-description: NCI-60 one-dose screen, 48 h (100 = growth as untreated, 0 = no growth, -100 = all killed)
- measurement-conditions: 10 µM unless noted
Compounds without any hit were thinned out: in the full panel of roughly 83,000, 20% have a hit.
Flag rule - growth less than 60% flags label 1; the remaining entries get label 0.

Lab note: confirm whether the reported growth for this compound is below 60%, equality not counting. compound: Cc1ccc2cnc(N)c(C#Cc3cncc(C(=O)Nc4ccc(CN5CCN(C)CC5)c(C(F)(F)F)c4)c3)c2c1
label 1

Lab note: confirm whether the reported growth for this compound is below 60%, equality not counting. compound: C=C1C(=O)O[C@H]2[C@H]1CC/C(Cn1cc(Cn3ccc4cc(Cl)ccc43)nn1)=C\CC[C@@]1(C)O[C@@H]21
label 1

Lab note: confirm whether the reported growth for this compound is below 60%, equality not counting. compound: COc1ccc(-c2cc(C(=O)N=Nc3c(O)[nH]c4ccccc34)no2)cc1
label 0

Lab note: confirm whether the reported growth for this compound is below 60%, equality not counting. compound: O=C(O)c1cn(C2CC2)c2cc(N3CCN(Cc4nc5c(cnn5-c5ccc([N+](=O)[O-])cc5)c(=O)[nH]4)CC3)c(F)cc2c1=O
label 0

Lab note: confirm whether the reported growth for this compound is below 60%, equality not counting. compound: COc1cccc(NC(=O)c2sc3nc4c(cc3c2N)CN(Cc2ccccc2)CC4)c1
label 1

Lab note: confirm whether the reported growth for this compound is below 60%, equality not counting. compound: Cc1cc(Nc2nc(N3CCOCC3)nc3ccccc23)n[nH]1
label 1

Lab note: confirm whether the reported growth for this compound is below 60%, equality not counting. compound: Oc1cccc(Nc2nccc(-c3ccc4ccccc4c3)n2)c1
label 1

Lab note: confirm whether the reported growth for this compound is below 60%, equality not counting. compound: O=C(CCN1CCOCC1)Nc1ccc(Cn2nnc3c2C(=O)c2nnn(Cc4ccc(NC(=O)CCN5CCOCC5)cc4)c2C3=O)cc1
label 0

Lab note: confirm whether the reported growth for this compound is below 60%, equality not counting. compound: CC(=O)C1=C(O)C=C2Oc3c(C(=O)/C=C/c4c(Cl)cccc4Cl)c(O)c(C)c(O)c3[C@]2(C)C1=O
label 1

Lab note: confirm whether the reported growth for this compound is below 60%, equality not counting. compound: O=C(/C=C/c1cc2ccccc2[nH]c1=O)/C=C/c1cc2ccccc2[nH]c1=O
label 1

Lab note: confirm whether the reported growth for this compound is below 60%, equality not counting. compound: Cc1ccn2c(-c3csc(Nc4cccc(O)c4)n3)c(C)nc2c1
label 1

Lab note: confirm whether the reported growth for this compound is below 60%, equality not counting. compound: C#Cc1nc(Nc2cc(C)[nH]n2)c2ccccc2n1
label 1

Lab note: confirm whether the reported growth for this compound is below 60%, equality not counting. compound: O=c1ccc2cc3ccccc3cc2[nH]1
label 0

Lab note: confirm whether the reported growth for this compound is below 60%, equality not counting. compound: COc1cc(C#N)cc(OC)c1OCCN(CCOc1c(OC)cc(C#N)cc1OC)S(=O)(=O)c1ccc(C)cc1
label 0

Lab note: confirm whether the reported growth for this compound is below 60%, equality not counting. compound: COc1cc2c(c(OC)c1OC)-c1ccc(N=NC(N)=S)c(=O)cc1[C@@H](NC(C)=O)CC2
label 1

Lab note: confirm whether the reported growth for this compound is below 60%, equality not counting. compound: CC(=O)Oc1cc2cnc3c4cc(OC(C)=O)c(OC(C)=O)cc4ccc3c2cc1OC(C)=O
label 1

Lab note: confirm whether the reported growth for this compound is below 60%, equality not counting. compound: O=C([C@@H](COCc1ccccc1)N1C(=O)[C@@H](N2C(=O)OC[C@@H]2c2ccccc2)[C@H]1/C=C/c1ccccc1)N1CCC(CCN2CCCCC2)CC1
label 0

Lab note: confirm whether the reported growth for this compound is below 60%, equality not counting. compound: Cn1cc(-c2nc(-c3c[nH]c4ccccc34)cs2)c2cccnc21
label 0

Lab note: confirm whether the reported growth for this compound is below 60%, equality not counting. compound: CN1Cc2c(cc(CN3CCCCC3)n2C)C(c2ccc(Br)cc2)C1 (stereo not drawn)
label 0

Lab note: confirm whether the reported growth for this compound is below 60%, equality not counting. compound: Nc1nc2c(c3ncccc13)C(c1cccc(Br)c1)Cc1ncccc1-2 (stereo not drawn)
label 1

Lab note: confirm whether the reported growth for this compound is below 60%, equality not counting. compound: O=C1/C(=C/c2ccccc2)CN(CCC(=O)N2C/C(=C\c3ccccc3)C(=O)/C(=C/c3ccccc3)C2)C/C1=C\c1ccccc1
label 0

Lab note: confirm whether the reported growth for this compound is below 60%, equality not counting. compound: COc1cc(/C=C2\CN(C(=O)CCN3CCC(=NO)CC3)C/C(=C\c3cc(OC)c(OC)c(OC)c3)C2=O)cc(OC)c1OC
label 1

Lab note: confirm whether the reported growth for this compound is below 60%, equality not counting. compound: CC1CN(C(C)C)C(=S)N(c2ccccc2)C1=O (stereo not drawn)
label 0

Lab note: confirm whether the reported growth for this compound is below 60%, equality not counting. compound: Cc1cc2c(cc1C)NC1=C(N2)OC(c2c3ccccc3cc3ccccc23)C1=O (stereo not drawn)
label 1

Lab note: confirm whether the reported growth for this compound is below 60%, equality not counting. compound: CCOC(=O)c1cnc2ccc(Br)cc2c1Nc1cccc(S(=O)(=O)NC)c1
label 0

Lab note: confirm whether the reported growth for this compound is below 60%, equality not counting. compound: O=C1Nc2ccccc2/C1=C/C(=N/c1nnc(-c2ccc(Cl)cc2)s1)c1ccccc1
label 1

Lab note: confirm whether the reported growth for this compound is below 60%, equality not counting. compound: Cc1cc(Cl)ccc1Nc1nc(C(F)(F)F)ccc1C(=O)N/N=C/c1ccc(F)cc1
label 1

Lab note: confirm whether the reported growth for this compound is below 60%, equality not counting. compound: COc1ccccc1N1CCN(CCn2c(=O)c3c(c4ccccc4n3C)n(C)c2=O)CC1
label 0

Lab note: confirm whether the reported growth for this compound is below 60%, equality not counting. compound: O=C(Cc1ccccc1)c1ccc(Cl)cc1
label 0

Lab note: confirm whether the reported growth for this compound is below 60%, equality not counting. compound: COCCOC(=O)C1=C(C)NC(=S)NC1c1ccc2c(c1)OCO2 (stereo not drawn)
label 0

All figures here come from PubChem BioAssay (NCI).
